# Subject of test: MASP-2 CCP2-SP (Homo sapiens (Human))
# Protocol text: MASP-2 co-crystallization, X-ray crystallography and structure analysis (H-bonds, van der Waals contacts)
# Cond: Table A6-1 pharmacophore angle
Structures can show the parent of a compound that is named as a salt.

# Compound, a(CA1, O1, O2)
data = [
    ("Cc1nc(N)ccc1CNC(=O)[C@H](C)NC(=O)[C@H]1C[C@@H](c2cccc3ccccc23)CCN1.Cl.Cl [1297_5]", 102.43),
    ("C[C@H](NC(=O)[C@H](N)CCc1cc(Cl)cc(Cl)c1)C(=O)NCc1ccc(C(=N)N)cc1", 111.55),
    ("Cc1nc(N)ccc1CNC(=O)[C@H](C)NC(=O)[C@H]1C[C@H](Cc2cc(Cl)cc(Cl)c2)CN1 [compound 1435, Dihydrochloride]", 106.19),
    ("C[C@H](NC(=O)[C@@H](CCc1ccccc1)NCCCc1ccc(O)cc1)C(=O)NCc1ccc(C(=N)N)cc1.Cl.Cl", 111.73),
    ("O=c1oc(-c2ccccc2[N+](=O)[O-])nc2ccccc12", 139.05),
    ("Cc1nc(N)ccc1CNC(=O)C(C)NC(=O)C1CC(c2cccc3ccccc23)CCN1.Cl.Cl (stereo not shown) [1297_6]", 105.49),
    ("Cc1nc(N)ccc1CNC(=O)[C@H](C)NC(=O)[C@H]1C[C@@H](Cc2ccccc2)CCN1", 103.61),
]

* * *

# Subject of test: UniProt O00187
# Protocol text: MASP-2 co-crystallization, X-ray crystallography and structure analysis (H-bonds, van der Waals contacts)
# Cond: Table A6-1 pharmacophore angle
Where a name gives a salt, the structure may show the parent alone.
Test readout: a(CA1, O1, O2)

# Molecule, Endpoint value
records = [
    ("C[C@H](NC(=O)[C@H]1C[C@@H](c2ccccc2)CCN1)C(=O)NCc1cc(Cl)ccc1O.Cl [1078_1]", 111.94),
    ("C[C@H](NC(=O)[C@H]1C[C@@H](c2ccccc2)CN1)C(=O)NCc1ccc2c(N)nccc2c1.Cl.Cl [1089_B]", 99.20),
    ("N=C(N)c1ccc(CNC(=O)C(CF)NC(=O)[C@H](N)CCc2ccccc2)cc1 (some centres unmarked) [compound 1050, Dihydrochloride]", 114.34),
    ("C[C@H](NC(=O)[C@H]1C[C@@H](c2ccccc2)CCN1)C(=O)NCc1cnc2[nH]cc(Cl)c2c1", 97.80),
    ("Cc1nc(N)ccc1CNC(=O)C(C)NC(=O)C1CC(c2cccc3ccccc23)CCN1.Cl.Cl (centres unmarked) [1297_1]", 107.14),
    ("Cc1nc(N)ccc1CNC(=O)[C@H](C)NC(=O)[C@H]1C[C@H](Cc2cccc(-c3ccccc3)c2)CN1", 107.31),
    ("Cc1cnc(NCCc2ccccc2)c(=O)n1CC(=O)NCc1ccc2nc(N)[nH]c2c1", 137.45),
    ("C[C@H](NC(=O)[C@H]1C[C@@H](c2ccccc2)CCN1)C(=O)NCc1cc(Cl)ccc1O.Cl [1078_3]", 112.44),
    ("C[C@H](NC(=O)[C@H]1C[C@H](Cc2ccccc2)CN1)C(=O)NCc1ccc(C(=N)N)cc1.Cl.Cl [1306_1]", 107.94),
    ("C[C@H](NC(=O)C1C[C@@H](c2ccccc2)CCN1)C(=O)NCc1ccc(C(=N)N)cc1 (stereo in doubt)", 88.32),
    ("C[C@H](NC(=O)[C@H]1C[C@@H](c2ccccc2)CCN1)C(=O)NCc1cc(Cl)ccc1O.Cl [1078_12]", 111.74),
    ("C[C@H](NC(=O)[C@H]1C[C@@H](c2ccccc2)CCN1)C(=O)NCc1cc(Cl)ccc1O.Cl [1078_8]", 112.99),
    ("Cc1nc(N)ccc1CNC(=O)[C@H](C)NC(=O)[C@H]1C[C@@H](c2ccccc2)CCN1 [compound 1253, Dihydrochloride]", 105.84),
    ("C[C@H](NC(=O)[C@H]1C[C@@H](c2ccccc2)CCN1)C(=O)NCc1cc(Cl)ccc1O.Cl [1078_2]", 109.26),
    ("Cc1nc(N)ccc1CNC(=O)[C@H](C)NC(=O)[C@H]1C[C@H](Cc2ccccc2Br)CN1.O=C(O)C(F)(F)F.O=C(O)C(F)(F)F [1372_A]", 106.33),
    ("C[C@H](NC(=O)[C@@H](CCc1ccccc1)NCc1ccc(N2CCOCC2)cc1)C(=O)NCc1ccc(C(=N)N)cc1", 147.27),
    ("CC(=O)Nc1ccc(CCNC(CCc2ccccc2)C(=O)NC(C)C(=O)NCc2ccc(C(=N)N)cc2)cc1.Cl.Cl (centres unmarked) [1345_2]", 105.43),
    ("C[C@H](NC(=O)[C@H]1C[C@H](c2ccccc2)CN1)C(=O)NCc1ccc2c(N)nccc2c1", 100.34),
    ("C[C@H](NC(=O)[C@H]1C[C@@H](c2ccccc2)CCN1)C(=O)NCc1cc(Cl)ccc1O.Cl [1078_9]", 117.85),
    ("Cc1nc(N)ccc1CNC(=O)C(C)NC(=O)C1CC(c2cccc3ccccc23)CCN1.Cl.Cl (centres unmarked) [1297_3]", 107.42),
    ("C[C@H](NC(=O)[C@H]1C[C@@H](c2ccccc2)CN1)C(=O)NCc1ccc2c(N)nccc2c1.Cl.Cl [1089_A]", 98.23),
    ("C[C@H](NC(=O)[C@H]1C[C@@H](c2ccccc2)CCN1)C(=O)NCc1cc(Cl)ccc1O.Cl [1078_7]", 110.36),
    ("C[C@H](NC(=O)[C@H](N)CCCc1ccccc1)C(=O)NCc1ccc(C(=N)N)cc1.Cl.Cl [1042_1]", 117.21),
    ("C[C@H](NC(=O)[C@H](N)CCc1ccccc1)C(=O)NCc1ccc(C(=N)N)cc1", 109.78),
    ("C[C@H](NC(=O)[C@H]1C[C@@H](c2ccccc2)CCN1)C(=O)NCc1cc(Cl)ccc1O.Cl [1078_5]", 117.54),
    ("C[C@H](NC(=O)[C@H]1Cc2c([nH]c3ccccc23)CN1)C(=O)NCc1ccc(C(=N)N)cc1.Cl.Cl [1097_1]", 112.80),
    ("C[C@H](NC(=O)[C@H]1Cc2c([nH]c3ccccc23)CN1)C(=O)NCc1ccc(C(=N)N)cc1.Cl.Cl [1097_2]", 109.11),
    ("C[C@H](NC(=O)[C@H]1C[C@@H](c2ccccc2)CCN1)C(=O)NCc1cc(Cl)ccc1O.Cl [1078_16]", 112.44),
    ("Cc1nc(N)ccc1CNC(=O)C(C)NC(=O)[C@H]1C[C@H](c2cccc(-c3ccccc3)c2)CN1 (stereo in doubt)", 105.67),
]

* * *

# Subject of test: MASP-2 CCP2-SP (Homo sapiens (Human), UniProt O00187)
# Sequence (O00187 445-686): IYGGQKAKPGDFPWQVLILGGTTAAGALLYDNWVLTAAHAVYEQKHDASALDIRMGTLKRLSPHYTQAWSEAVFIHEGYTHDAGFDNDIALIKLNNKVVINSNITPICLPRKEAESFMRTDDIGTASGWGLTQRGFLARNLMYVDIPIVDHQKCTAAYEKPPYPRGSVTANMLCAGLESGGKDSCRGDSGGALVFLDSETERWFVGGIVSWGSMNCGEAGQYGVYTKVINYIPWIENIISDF
# Sequence (O00187 364-432 partner): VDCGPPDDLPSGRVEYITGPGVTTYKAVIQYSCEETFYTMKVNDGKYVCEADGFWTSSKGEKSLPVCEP
# Protocol text: MASP-2 co-crystallization, X-ray crystallography and structure analysis (H-bonds, van der Waals contacts)
# Set-up: unit not given beside the values
# Cond: Table A5-1 pharmacophore: distance between elements, S2/S1 region
Structures can show the parent of a compound that is named as a salt.
Classify by measured d(H4,O2): TRUE if it is equal to or exceeds 4, FALSE if it is smaller.

# Molecule, Group
data = [
    ("C[C@H](NC(=O)[C@H]1C[C@H](Cc2ccccc2)CN1)C(=O)NCc1cc(Cl)ccc1-n1cnnn1 [compound 1371, Hydrochloride]", "FALSE"),
    ("C[C@H](NC(=O)[C@H](N)C1Cc2ccccc2C1)C(=O)NCc1ccc2c(N)nccc2c1.Cl.Cl [1088_A]", "TRUE"),
    ("Cc1nc(N)ccc1CNC(=O)[C@H](C)NC(=O)[C@H]1C[C@H](Cc2cc(Cl)cc(Cl)c2)CN1 [compound 1435, Dihydrochloride]", "FALSE"),
    ("CC(NC(=O)C1CC(Cc2ccccc2)CN1)C(=O)NCc1cnc2c(c1)c(Cl)cn2C.Cl.Cl (mixture of isomers) [1450_A]", "FALSE"),
    ("Cc1nc(N)ccc1CNC(=O)C(C)NC(=O)C1CC(c2cccc3ccccc23)CCN1.Cl.Cl (centres unmarked) [1297_1]", "FALSE"),
    ("C[C@H](NC(=O)[C@H]1C[C@@H](c2ccccc2)CCN1)C(=O)NCc1cnc2[nH]cc(Cl)c2c1", "FALSE"),
    ("CC(NC(=O)C(CCc1ccccc1)NCCCc1ccc(O)cc1)C(=O)NCc1ccc(C(=N)N)cc1.Cl.Cl (centres unmarked)", "TRUE"),
    ("C[C@H](NC(=O)[C@H]1C[C@@H](c2ccccc2)CCN1)C(=O)NCc1cc(Cl)ccc1O.Cl [1078_3]", "FALSE"),
    ("Cc1nc(N)ccc1CNC(=O)[C@H](C)NC(=O)[C@H]1C[C@H](Cc2cccc(Cl)c2)CN1.Cl.Cl [1328_3]", "FALSE"),
    ("Cc1nc(N)ccc1CNC(=O)[C@H](C)NC(=O)[C@H]1C[C@@H](c2cccc3ccccc23)CCN1.Cl.Cl [1297_4]", "FALSE"),
    ("CNC(=O)c1ccc2c(=O)n(Cc3ccccc3)c(=O)n(CC(=O)NCc3ccc(C(=N)N)cc3)c2c1", "TRUE"),
    ("Cc1nc(N)ccc1CNC(=O)[C@H](C)NC(=O)[C@H]1C[C@H](Cc2ccccc2)CN1", "FALSE"),
    ("CC(=O)Nc1ccc(CCN[C@H](CCc2ccccc2)C(=O)N[C@@H](C)C(=O)NCc2ccc(N)nc2C)cc1 [compound 1368, Dihydrochloride]", "TRUE"),
    ("Cc1nc(N)ccc1CNC(=O)[C@H](C)NC(=O)[C@H]1C[C@H](Cc2cccc(Cl)c2)CN1.Cl.Cl [1328_1]", "FALSE"),
]
